System: monoclonal antibody 10-15-63
Experiment: Immunoprecipitation of [125I] synthetic peptides by 10-15-63
Type: binding, mouse
Conditions: 10-15-63 100.0 μg/ml final
MEASUREMENT_TYPE: x-fold increase of specific over non-specific precipitation

{"columns": ["SUBSTANCE", "VALUE_OBSERVED"],
 "data": [
  ["ARILAVERYLKDQQLLGIWGCSGKLICTTAVPWNASWSNKSLEQIWNNMTWMEWDREINNYSLIHSLIEESQNQQEKNELLELNK [P67-154]", "(0) x-fold"],
  ["NH2-Asp-Arg-Glu-Ile-Asn-Asn-Tyr-Thr-Ser-Leu-Ile-His-Ser-Leu-Ile-Glu-Glu -Ser-Gln-Asn-Gln-Gln-Glu-Lys-Asn-Glu-Gln-Glu-Leu-Leu-Glu-Leu-Asp-Lys-COOH (H-DREINNYTSLIHSLIEESQNQQEKNEQELLELDK-OH) [P121-154]", "(0) x-fold"],
  ["YNYTSLIHSLIEESQNQQEKNEQELLELDKWANLWNWL [P126-162]", "(0) x-fold"]
]}
